EXPERIMENT: splicing luciferase reporter signal modulators, primary screen, spliceosome inhibition project, cell-based, HEK293, splice +/- reporter (AID 1101);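 also: HEK293 cells carrying a splicing-competent luciferase reporter gene; test concentration not given here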
MEASUREMENT_CONTEXT: luminescence, 24 h, higher = more signal, called active from +8 up or from −8 down

| MOLECULE | z-score |
| --- | --- |
| C[C@]1(C(=O)O)c2ccccc2C(=O)N(Cc2cc(C(F)(F)F)cc(C(F)(F)F)c2)[C@H]1c1ccc(CO)cc1 | 0.487 |
| COC(=O)[C@@]1(Cc2ccc(F)cc2)[C@H]2c3cc(C(=O)N4CCCC4)n(Cc4ccc(OC(F)(F)F)cc4)c3C[C@H]2CN1C(=O)c1ccccc1 | 1.08 |
| Cc1ccc(S[C@]2(C(=O)NC3CC3)CC(=O)N(C3Cc4ccccc4C3)[C@@H]2c2ccc(CO)cc2I)cc1 | -1.38 |
| CCCCN1CC=CC23O[C@@H]4/C=C\CCC(C)OC(=O)C4[C@H]2C(=O)N(CCO)[C@@H]3C1=O (some centres not stated) | 0.267 |
| COC(=O)Cn1c(C(=O)N(C)C)cc2c1C[C@H]1CN(C(=O)c3ccccc3)[C@@](Cc3ccccc3)(C(=O)OC)[C@@H]21 | -0.332 |
| CN(C)CCCCNC(=O)[C@H]1C[C@H]2C(=O)N[C@@H](CCCCN(C)C)C(=O)N2[C@H]1c1ccc(O)cc1 | -1.73 |
| C=C[C@H](OC)[C@@H](O)c1ccc(OC)c(O)c1 | 0.772 |
